system: SK-MEL-2 melanoma; experiment: NCI tumour cell line growth inhibition, 48 h
property_measured: TGI

[[record]]
compound = "CSc1nc(=O)c(C#N)c(-c2ccccc2)n1C1OC(COC(C)=O)C(OC(C)=O)C(OC(C)=O)C1OC(C)=O (configuration not stated)"
result = "> 100 µM"

[[record]]
compound = "O=C(O/N=C1/CCCC/C1=C\\c1ccccc1)c1ccc(Cl)cc1"
result = "> 100 µM"

[[record]]
compound = "CC(CN(C)C)C(=O)/C=C/c1ccc(Cl)c(Cl)c1 (configuration not stated)"
result = "4.19 µM"

[[record]]
compound = "COc1ccc(-c2c(C#N)c(N)nc3c2CCCc2ccc(F)cc2-3)cc1OC"
result = "> 100 µM"

[[record]]
compound = "COc1cccc2c1C(=O)c1c(O)c3c(c(O)c1C2=O)C[C@@](O)(/C(C)=N\\O)C[C@@H]3OC1CC(N)C(O)C(C)O1 (some centres not stated)"
result = "2.48 µM"

[[record]]
compound = "COc1cc(C2c3cc4c(cc3OC(N3CCOCC3)C2C)OCO4)cc(OC)c1OC(C)=O (configuration not stated)"
result = "41.1 µM"

[[record]]
compound = "c1ccc(-c2nc3ccccc3n3nnnc23)cc1"
result = "> 100 µM"

